- Assay details: cytotoxicity in HEK293T cells – cell-based, CellTiter-Glo luminescence, cherry-picks, cytotoxicity control for LMP1 NF-kB inhibitor project, dose response (AID 504861)
- Particulars: HEK293T viability, CellTiter-Glo ATP luminescence, 48 h; series mostly up to 26 µM
In all, about 1,200 compounds went through this assay and about 290 (24%) were called active. Not shown: some 3% with an inconclusive outcome. Only a sample is shown. Results with a measured potency or affinity are listed apart.
Metric: outcome

INSERT INTO measurements (molecule, metric, assay_result) VALUES
  ('c1ccc(-c2nnc(-c3ccccn3)s2)nc1', 'outcome', 'inactive'),
  ('O=C(CN1CCN(S(=O)(=O)c2ccc(F)cc2)CC1)Nc1cccc(C(F)(F)F)c1', 'outcome', 'inactive'),
  ('CC(C)(O)C#Cc1ccc([C@@H]2C[C@H]3CN(c4ccccc4)C(=O)[C@]34CCCN24)s1', 'outcome', 'inactive'),
  ('O=C(Cc1cccc2ccccc12)Nc1ccc(-c2cc3ccccc3oc2=O)cc1', 'outcome', 'inactive'),
  ('COc1ccc2cc(C(N)=O)/c(=N\NC(=O)c3ccccc3)oc2c1', 'outcome', 'inactive'),
  ('O=C(O)c1cn2c3c(ccc(Cl)c3c1=O)OCC2', 'outcome', 'inactive'),
  ('O=C(c1ccc(COc2ccccc2Cl)o1)N1CCCC1', 'outcome', 'inactive'),
  ('CCn1c2ccccc2c2cc(/C=N/NC(=O)c3cc(O)cc(O)c3)ccc21', 'outcome', 'inactive'),
  ('COc1cc(/C=N/NC(=O)c2cc(C34CC5CC(CC(C5)C3)C4)[nH]n2)ccc1O', 'outcome', 'inactive'),
  ('Cc1cccc(/C=N/NC(=O)CNc2cccc3ccccc23)n1', 'outcome', 'inactive');

Required: outcome, one value per molecule below.
1. O=C(Nc1ccc(N2CCOCC2)cc1)c1cn2ccccc2n1
2. CC1=C(C(=O)OCc2ccc3c(c2)OCO3)C(c2ccc(Cl)cc2)NC(=O)N1 (centres undefined)
3. Cc1cc2cc(CN(Cc3ccco3)S(=O)(=O)c3c(C)ccc4nsnc34)c(=O)[nH]c2cc1C
4. COc1ccc(NC(=O)c2cc3ccccc3oc2=O)cc1
5. Cc1cnc(NC(=O)c2ccc(OCC3CCCO3)cc2)s1 (centres undefined)

Given back:
inactive
inactive
inactive
inactive
inactive

* * *

- Assay details: cytotoxicity in HEK293T cells – cell-based, CellTiter-Glo luminescence, cherry-picks, cytotoxicity control for LMP1 NF-kB inhibitor project, dose response (AID 504861)
- Particulars: HEK293T viability, CellTiter-Glo ATP luminescence, 48 h; series mostly up to 26 µM
The whole screen tested about 1,200 compounds, of which about 290 (24%) were called active. Roughly 3% stayed inconclusive and do not appear here. Only a sample is shown. Results with a measured potency or affinity are listed apart.
Metric: outcome

// worked examples, outcome included
INSERT INTO assay_data (molecule, metric, assay_result) VALUES
  ('CC(C)(C)c1ccc(C(=O)N2CCC(=O)N(C(CO)Cc3ccccc3)CC2)cc1 (centres undefined)', 'outcome', 'inactive'),
  ('CC1CCN(C(=O)/C(=C\c2cccs2)NC(=O)c2ccccc2)CC1', 'outcome', 'inactive'),
  ('COc1ccc2cc3c(N)nn(C(=O)c4cccc([N+](=O)[O-])c4)c3nc2c1', 'outcome', 'inactive'),
  ('CSc1ccccc1C(=O)N1CCC2(CC1)CC(=O)c1ccccc1O2', 'outcome', 'inactive'),
  ('O=C(Nc1nnc(N2CCCCCC2)s1)c1cc(-c2ccc(Br)cc2)on1', 'outcome', 'inactive'),
  ('O=c1c2cnn(-c3ccccc3)c2nc(-c2cccs2)n1-c1ccc(Cl)cc1', 'outcome', 'inactive'),
  ('CCOC(=O)Oc1c(OC)cc(C(=O)O[C@@H]2C[C@@H]3CN4CCc5c([nH]c6cc(OC)ccc56)[C@H]4C[C@@H]3[C@H](C(=O)OC)[C@H]2OC)cc1OC', 'outcome', 'inactive'),
  ('Cc1ccc(C)c(Cn2c(O)c(N=NC(=S)Nc3ccccc3F)c3ccccc32)c1', 'outcome', 'inactive');

Asked: What value of measured outcome is listed for COc1ccccc1-c1ccccc1C1=CC(=O)CC(C)(C)C1=O ?
Given back: inactive

* * *

- Assay details: cytotoxicity in HEK293T cells – cell-based, CellTiter-Glo luminescence, cherry-picks, cytotoxicity control for LMP1 NF-kB inhibitor project, dose response (AID 504861)
- Particulars: HEK293T viability, CellTiter-Glo ATP luminescence, 48 h; series mostly up to 26 µM
The whole screen tested about 1,200 compounds, of which about 290 (24%) were called active. Another 3% or so got no clear call; they are omitted. The list is a sample of the results. Entries with a potency or affinity are not part of this list.
Metric: outcome

INSERT INTO results (molecule, metric, assay_result) VALUES
  ('COc1ccc(-c2cc3nc4n(c(=O)c3s2)CCC4)cc1', 'outcome', 'inactive'),
  ('CC(=O)Nc1ccc(OCCCNC(=O)c2c(-c3ccccc3)noc2C)cc1', 'outcome', 'inactive'),
  ('CNC(=S)Nc1ccc2nc(C)c(C)nc2c1', 'outcome', 'inactive'),
  ('Cc1ccc(C)c(S(=O)(=O)N2CCN(C(=O)c3ccc(C)s3)CC2)c1', 'outcome', 'inactive');

Required: outcome, one value per molecule below.
1. COc1ccc(C(=O)N=c2nc3ccccn3s2)cc1
2. C[C@@H]1CN([C@@H](C)CO)S(=O)(=O)c2ccc(/C=C/c3ccccc3)cc2O[C@@H]1CN(C)Cc1ccc(C(=O)O)cc1
3. CC1(C)Cc2nc3sc4c(SCC(=O)O)ncnc4c3cc2CO1
4. Cc1ccc(-c2nnn(CC(=O)N(Cc3ccco3)C(C(=O)NC(C)(C)C)c3ccncc3)n2)o1 (centres undefined)
5. O=C(Nc1cccc(C(=O)O)c1)Nc1ccccc1Cl
6. CCCCNC(=S)Nc1ccc([N+](=O)[O-])cc1
7. CCn1nnc2cc(C(=O)NCCc3ccccc3F)ccc21
8. Cc1cc(C)c(OCCn2ccnc2)c(C)c1

Given back:
1. inactive
2. inactive
3. inactive
4. inactive
5. inactive
6. inactive
7. inactive
8. inactive

Required: outcome, one value per molecule below.
1. Cc1nc(C)n(C(C)CNC(=O)c2ccco2)n1 (centres undefined)
2. CCOC(=O)c1sc(NC(=O)CNCc2ccccn2)c(C(=O)OCC)c1C
3. CCCCN1C2CCCC1CC(NC(=O)C1CCCCC1)C2 (centres undefined)
4. COc1ccc(S(=O)(=O)N2CCN(CC(=O)Nc3cc(OC)cc(OC)c3)CC2)cc1
5. COc1ccc(Cl)cc1NC(=O)CN(C)S(=O)(=O)c1cccs1

Given back:
1. inactive
2. inactive
3. inactive
4. inactive
5. inactive

Required: outcome, one value per molecule below.
1. COc1ccc(C(=O)Nc2ccc(N3CCN(C(=O)c4ccccc4C)CC3)cc2)cc1
2. O=C(O)CN1C(=O)/C(=C\c2ccccc2OCc2ccc(Cl)cc2Cl)SC1=S
3. CS(=O)(=O)c1ccc(Sc2nc3ccccc3s2)c([N+](=O)[O-])c1
4. O=C(O)c1c2c(nc3ccccc13)/C(=C/c1ccc(O)cc1)CC2
5. CCn1c(=O)c2c(cnn2C)c2ccccc21
6. O=C1c2cccc3c(O)ccc(c23)C(=O)N1c1ccc(Cl)cc1

Given back:
inactive
inactive
inactive
inactive
inactive
inactive

Required: outcome, one value per molecule below.
1. C[C@@]12C(=O)N(Cc3ccccc3)CC(=O)N1[C@H](/C=C/c1ccccc1)[C@@H]1C(=O)N(c3ccccc3)C(=O)[C@@H]12
2. COc1ccc(C(=O)Nc2cc(C)c(NC(=O)c3ccccc3OC)cn2)cc1
3. COC(=O)C1=C(C(=O)c2ccccc2)C(c2ccccc2)n2nnnc2N1 (centres undefined)
4. Cc1ccc(/C=C/c2nc3ccccc3s2)s1
5. COc1ccc(/C=C2\SC(=O)N(CCCC(=O)Nc3ccc(C(=O)O)cc3)C2=O)cc1
6. COc1ccc(N2C(=O)CC(Sc3nnc(-c4ccccc4)o3)C2=O)cc1 (centres undefined)
7. COc1ccccc1OCc1ccc(C(=O)c2ccccc2)cc1
8. CC(C)(C)n1nc(-c2ccc(F)cc2)c2c(N)ncnc21

Given back:
1: inactive; 2: inactive; 3: inactive; 4: inactive; 5: inactive; 6: inactive; 7: inactive; 8: inactive

* * *

- Assay details: cytotoxicity in HEK293T cells – cell-based, CellTiter-Glo luminescence, cherry-picks, cytotoxicity control for LMP1 NF-kB inhibitor project, dose response (AID 504861)
- Particulars: HEK293T viability, CellTiter-Glo ATP luminescence, 48 h; series mostly up to 26 µM
Hit rate of the full screen: of about 1,200 compounds, about 290 (24%) were called active. Another 3% or so got no clear call; they are omitted. Only a sample is shown. Results with a measured potency or affinity are listed apart.
Metric: outcome

// worked examples, outcome included
INSERT INTO results (compound, metric, assay_result) VALUES
  ('O=C(c1noc2c1CCCC2)N1CCCCC1', 'outcome', 'inactive'),
  ('O=C(NC(Cc1c[nH]c2ccccc12)C(=O)Nc1ccc(F)c([N+](=O)[O-])c1)c1cccs1 (stereo not drawn)', 'outcome', 'inactive'),
  ('O=C(c1ccc(Cl)cc1)N1CCN(CCOc2ccccc2)CC1', 'outcome', 'inactive'),
  ('COc1ccccc1NC(=O)CC(c1ccc(OC(C)C)cc1)c1ccccc1OC (stereo not drawn)', 'outcome', 'inactive'),
  ('Cc1nc2sc(C(N)=O)c(N)c2c2c1CCCC2', 'outcome', 'inactive');

Required: outcome, one value per compound below.
1. O=c1cc(-c2ccccc2)[nH]c2ccc(F)cc12
2. C=CCn1c(=O)/c(=C/c2ccc(Cl)cc2)s/c1=C(\C#N)c1nnc2n1CCCCC2
3. CSc1ccccc1NC(=O)CN1CCCCC1C (stereo not drawn)
4. CN(CC(=O)Nc1cccnc1)S(=O)(=O)c1ccc(Br)cc1
5. CC(=C/c1ccccc1)/C=N/n1c(-c2ccncc2)n[nH]c1=S
6. Cc1nn(C(C)(C)C)c(C)c1/C=N/OC(=O)Nc1ccc(Cl)c(Cl)c1

Given back:
1: inactive; 2: inactive; 3: inactive; 4: inactive; 5: inactive; 6: inactive

Required: outcome, one value per compound below.
1. O=C(CN1C(=O)C2C3C=CC(C3)C2C1=O)NCCC1=CCCCC1 (stereo not drawn)
2. Clc1cccc(CN2CCCCCC2)c1
3. NC(=O)C1(Nc2ccc([N+](=O)[O-])cc2)CCCC1
4. O=C(O)c1ccc(N/N=C/c2ccc3ncccc3c2)cc1
5. CC1CCN(c2ccc(-c3ccc(NC(=O)C(F)(F)F)cc3)nn2)CC1

Given back:
1: inactive; 2: inactive; 3: inactive; 4: inactive; 5: inactive

Required: outcome, one value per compound below.
1. CCOC(=O)Cc1csc(N/N=C\c2ccc(N(C)C)cc2)n1
2. Cc1cc(C(=O)CN2C(=O)c3ccccc3C2=O)c(C)n1Cc1cccs1
3. Cc1nn(-c2ccccc2)c(Cl)c1C1C(C#N)=C(N)Oc2n[nH]c(C)c21 (stereo not drawn)
4. COc1ccc(C(=O)Nc2cccc(C(=O)N/N=C/c3ccc(OC)cc3OC)c2)cc1
5. CCOc1ccc(-c2cc(C(=O)N/N=C/c3ccc(O)cc3)c3ccccc3n2)cc1
6. Cc1ccc(-n2cc(C(=O)c3ccccc3O)cn2)cc1
7. N#CC1=C(N)N2C(=C(C#N)C1c1cccc(Br)c1)Nc1ccccc12 (stereo not drawn)

Given back:
inactive
inactive
inactive
inactive
inactive
inactive
inactive
